Provenance of the data: patent US7998940B2

System: rabbit vWF A1 domain (SEQ ID NO 6)
Sequence (as listed by the source): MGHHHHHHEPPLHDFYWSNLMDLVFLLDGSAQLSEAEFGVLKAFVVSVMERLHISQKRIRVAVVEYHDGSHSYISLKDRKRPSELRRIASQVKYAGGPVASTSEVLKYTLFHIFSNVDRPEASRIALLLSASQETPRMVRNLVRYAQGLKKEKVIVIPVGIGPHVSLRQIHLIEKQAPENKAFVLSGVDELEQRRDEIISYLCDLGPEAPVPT
methodDescription: dot blot KD determination, rabbit vWF A1 domain
Assay type: binding
cond: DNA 1 minimers
parameterMeasured: pKd
Numbers only, as −log10 of the molar value.

Ask: Report its pKd with rabbit vWF A1 domain (SEQ ID NO 6) as the test system: ATGAGAGTGCTGGTGGATTGCTCAGGTCTGCTGGCTGCTTACTCTCAT (DNA, backbone not given here) [ARC845, minimized DNA aptamer]
Result: 7.25
